EXPERIMENT: Antiproliferative activity against human HL60 cells assessed as inhibition of cell survival after 72 hrs by MTT assay
Format: functional, cell-based
CONDITION_PARAMETERS: HL-60, 72 h
MEASURED_QUANTITY: IC50 (nM)

* Cc1ccc(-c2nnc(-c3ccc(CN4CCN(CCN=C=S)CC4)cc3)o2)cc1Nc1nccc(-c2cccnc2)n1 | 290
* Cc1ccc(-c2nnc(-c3ccc(CN4CCN(CCN)CC4)c(C(F)(F)F)c3)o2)cc1Nc1nccc(-c2cccnc2)n1 | 20
* Cc1ccc(-c2nnc(-c3ccc(CN4CCN(CCO)CC4)cc3)o2)cc1Nc1nccc(-c2cccnc2)n1 | 810
* Cc1ccc(-c2cn(-c3ccccc3N3CCOCC3)nn2)cc1Nc1nccc(-c2cccnc2)n1 | 1490
* Cc1ccc(-c2cn(-c3ccc(CN4CCCC4)cc3)nn2)cc1Nc1nccc(-c2cccnc2)n1 | 1570
* CCN(CC)c1ccc(-n2cc(-c3ccc(C)c(Nc4nccc(-c5cccnc5)n4)c3)nn2)cc1 | 13600
* Cc1ccc(-c2cn(-c3ccc(CN4CCOCC4)cc3)nn2)cc1Nc1nccc(-c2cccnc2)n1 | 6960
* Cc1ccc(-c2nnc(-c3ccc(CN4CCN(CCO)CC4)c(C(F)(F)F)c3)o2)cc1Nc1nccc(-c2cccnc2)n1 | 390
* Cc1ccc(-n2cc(C(C)O)nn2)cc1Nc1nccc(-c2cccnc2)n1 (stereo unspecified) | 25500
* Cc1ccc(-c2nnc(-c3ccc(CN4CCN(CCN=C=S)CC4)c(C(F)(F)F)c3)o2)cc1Nc1nccc(-c2cccnc2)n1 | 70
* Cc1ccc(-n2cc(-c3ccc(CN4CCN(C)CC4)c(C(F)(F)F)c3)nn2)cc1Nc1nccc(-c2cccnc2)n1 | 20
* Cc1ccc(-n2cc(CCO)nn2)cc1Nc1nccc(-c2cccnc2)n1 | 9100
* Cc1ccc(-c2nnc(-c3ccc(CN4CCN(C)CC4)cc3)o2)cc1Nc1nccc(-c2cccnc2)n1 | 570
* Cc1ccc(-c2cn(-c3ccc(CN4CCN(C)CC4)cc3)nn2)cc1Nc1nccc(-c2cccnc2)n1 | 6740
* Cc1ccc(-c2cn(-c3cc(C(F)(F)F)ccc3N3CCOCC3)nn2)cc1Nc1nccc(-c2cccnc2)n1 | 17500
* Cc1ccc(-c2cn(-c3ccc(CN4CCN(C)CC4)c(C(F)(F)F)c3)nn2)cc1Nc1nccc(-c2cccnc2)n1 | 20
* Cc1ccc(-c2nnc(-c3ccc(CN4CCN(C)CC4)c(C(F)(F)F)c3)o2)cc1Nc1nccc(-c2cccnc2)n1 | 50
* COc1ccc(-c2cn(-c3ccc(C)c(Nc4nccc(-c5cccnc5)n4)c3)nn2)cc1C(F)(F)F | 21200
* Cc1ccc(-n2cc(-c3cc(C(F)(F)F)cc(C(F)(F)F)c3)nn2)cc1Nc1nccc(-c2cccnc2)n1 | 1600
* Cc1ccc(NC(=O)c2ccc(CN3CCN(C)CC3)cc2)cc1Nc1nccc(-c2cccnc2)n1 | 30
* C=CC(=O)NCCN1CCN(Cc2ccc(-c3nnc(-c4ccc(C)c(Nc5nccc(-c6cccnc6)n5)c4)o3)cc2C(F)(F)F)CC1 | 2660
* Cc1ccc(-c2cn(-c3ccc(CN4CCCCC4)cc3)nn2)cc1Nc1nccc(-c2cccnc2)n1 | 740
